Measure name: melting point

Sample answers from the record:
Compound	melting point
Cc1ccnc(-n2cc(S(=O)(=O)Cl)cn2)c1	104 to 106 °C
CC(C)(C)OC(=O)N1CCCC(C(=O)NC2CCCNC2)C1 (centres undefined)	116 to 118 °C
COc1cc(N)ccc1N1CCCC1=O	126 to 128 °C
Cc1ccc(C2(C)NC(=O)N(CC(=O)O)C2=O)cc1 (centres undefined)	206 to 208 °C
O=C(O)c1cc(-c2ccccc2Cl)nc2ccccc12	273 to 275 °C

QUERY: # query: melting point of entry Cc1nn(CC(C)C)c(Cl)c1C(=O)O
RESULT: 128 to 130 °C

QUERY: # query: melting point of entry O=C(O)c1csc(-c2cccc([N+](=O)[O-])c2)n1
RESULT: 214 to 216 °C

QUERY: # query: melting point of entry CN(C)C(=O)c1cccc(O)c1
RESULT: 126 to 128 °C

QUERY: # query: melting point of entry CCCc1ccc(C(=O)CCl)cc1
RESULT: 30 to 32 °C

QUERY: # query: melting point of entry O=C(O)C1CCN(C(=O)c2ccc(C(F)(F)F)cc2)CC1
RESULT: 162 to 164 °C

QUERY: # query: melting point of entry Cc1sc(N)nc1-c1ccc2c(c1)CCCO2
RESULT: 209 to 211 °C

QUERY: # query: melting point of entry O=C(O)CS(=O)(=O)c1ccc(Br)cc1
RESULT: 145 to 147 °C

QUERY: # query: melting point of entry Cc1cc(/C=C(\C#N)C(=O)O)c(C)n1CCC(C)C
RESULT: 229 to 231 °C

QUERY: # query: melting point of entry N#Cc1cc(Br)ccc1S(=O)(=O)Cl
RESULT: 94 to 96 °C

QUERY: # query: melting point of entry O=C(O)C1CCCN1C(=O)c1cncn1-c1ccccc1 (centres undefined)
RESULT: 133 to 135 °C

QUERY: # query: melting point of entry O=C(O)c1noc(-c2cccc(F)c2)n1
RESULT: 120 to 122 °C

QUERY: # query: melting point of entry CNCCCc1cc(-c2ccc(F)cc2)no1
RESULT: 146 to 148 °C

QUERY: # query: melting point of entry O=C(O)c1cnc2c(cnn2C2CCCC2)c1
RESULT: 141 to 143 °C

QUERY: # query: melting point of entry COCCSc1ccc([N+](=O)[O-])cc1C(=O)O
RESULT: 159 to 161 °C

QUERY: # query: melting point of entry O=C(O)CC(Br)C(=O)c1ccccc1 (centres undefined)
RESULT: 128 to 130 °C

QUERY: # query: melting point of entry CS(=O)(=O)c1ccc(C2CNCCO2)cc1 (centres undefined)
RESULT: 109 to 111 °C

QUERY: # query: melting point of entry N#Cc1ccc(C(=O)NCC(=O)O)cc1
RESULT: 193 to 195 °C

QUERY: # query: melting point of entry O=c1c2c([nH]c3ccc(Oc4ccccc4)cc13)CCCC2
RESULT: 319 to 321 °C

The measurements presented in this section are drawn from a melting point compilation (Tetko et al.).
